Biological target: T1, 人4-1BB on Jurkat-4-1BB细胞 (human, UniProt Q07011 24-255)
T1 construct: whole, on cells; the reporter line Jurkat-4-1BB-NFkB-luc carries the same receptor; also called Jurkat-4-1BB-NFkB-luc; CD137
T1 sequence (Q07011 24-255): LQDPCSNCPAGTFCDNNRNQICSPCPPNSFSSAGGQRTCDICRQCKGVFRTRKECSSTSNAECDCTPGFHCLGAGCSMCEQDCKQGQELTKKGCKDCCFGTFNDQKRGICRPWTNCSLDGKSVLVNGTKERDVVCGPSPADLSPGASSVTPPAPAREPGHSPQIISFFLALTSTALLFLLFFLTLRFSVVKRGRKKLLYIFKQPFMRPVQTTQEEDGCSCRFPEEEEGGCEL
Assay: FACS on Jurkat-4-1BB cells

binder	binding result
抗人4-1BB杂交瘤抗体3F10 (antibody, V domains shown, Mouse hybridoma antibody purified on Protein A) VH: QVQLQQSGAELVRPGASVKISCKAFGFTFTHHHINWVKQRPGQGLDWIGYINPYNDYSIYNQKFEGKATLTVDKSSSTAYMELSRLTSDDSAVYFCARGGLGRGYFDYWGQGTTLTVSS VL: DIVMTQSTAIMSASLGEKVTMTCRASSSVTSSYLHWYQQKSGASPKIWISSTSNLASGVPVRFSGSGSGTSYSLTISSVEAEDAATYYCQQYSGNPYTFGGGTKLEIK	binds
抗人4-1BB人源化抗体3A11 (antibody, V domains shown, Humanised antibody expressed in 293 cells, purified on Protein A, captured by anti-human IgG in Biacore; also called hu3A11) VH: EVQLVESGGGLVKPGGSLRLSCAASGFIFNTNAMNWVRQAPGKGLEWIARIRSKINNYATYYADSVKDRFTISRDDSKNTLYLQMNSLKTEDTAVYYCNWDEAYWGQGTLVTVSS VL: DIQMTQSPSSLSASVGDRVTITCKASDHINNWLAWYQQKPGKAPKLLIFGATSLETGVPSRFSGSASGNDYTLTISSLQPEDFATYYCQQYWSIPYTFGQGTKLEIK	binds
